biological target: B-Raf(V599E) kinase (Homo sapiens, UniProt P15056, V600E); assay: B-Raf(V599E) kinase assay B1 (construct 1, MEK1 substrate, coupled spectrophotometric); type: biochemical
Sequence (P15056 with tags, fused parts or gaps V600E): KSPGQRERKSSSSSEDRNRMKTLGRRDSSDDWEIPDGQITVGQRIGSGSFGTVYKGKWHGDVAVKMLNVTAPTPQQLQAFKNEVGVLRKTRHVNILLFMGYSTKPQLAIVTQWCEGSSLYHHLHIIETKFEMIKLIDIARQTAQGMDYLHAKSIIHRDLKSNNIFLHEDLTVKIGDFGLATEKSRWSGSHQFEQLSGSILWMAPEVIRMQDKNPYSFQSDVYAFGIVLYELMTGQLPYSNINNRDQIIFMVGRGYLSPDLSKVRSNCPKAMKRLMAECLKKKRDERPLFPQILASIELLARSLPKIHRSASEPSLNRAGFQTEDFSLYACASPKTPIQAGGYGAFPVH
Reported IC50 values are given for each entry in this list.

[
  {
    "chemicalString": "Cn1ccc2cc(-n3nc(C(C)(C)C)cc3NC(=O)Nc3cccc(Cl)c3Cl)ccc21",
    "IC50, nM": 3.2
  },
  {
    "chemicalString": "CC(C)(C)c1cc(NC(=O)Nc2cccc(Cl)c2Cl)n(-c2ccc3c(c2)CCCN3C(=N)N)n1",
    "IC50, nM": 4.9
  },
  {
    "chemicalString": "CC(C)(C)c1cc(NC(=O)Nc2cccc(F)c2)n(-c2ccc3c(c2)CCN3)n1",
    "IC50, nM": 36
  },
  {
    "chemicalString": "CNC(=O)c1cc(Oc2ccc(NC(=O)Nc3cc(C(C)(C)C)nn3-c3ccc4nc(N5CCNCC5)ccc4c3)cc2)ccn1",
    "IC50, nM": 40
  }
]
